target: LPA1 (Homo sapiens, UniProt Q92633); construct: ProLink (PK) beta-galactosidase enzyme-fragment tag; assay: LPA1 calcium flux assay (LPA1 functional antagonist assay); settings: PathHunter CHO-K1 EDG2 β-Arrestin cell line; calcium indicator dye; stimulated with EC80 concentration of LPA; FLIPR Tetra
Sequence (Q92633 whole entry, the tested form may be a part): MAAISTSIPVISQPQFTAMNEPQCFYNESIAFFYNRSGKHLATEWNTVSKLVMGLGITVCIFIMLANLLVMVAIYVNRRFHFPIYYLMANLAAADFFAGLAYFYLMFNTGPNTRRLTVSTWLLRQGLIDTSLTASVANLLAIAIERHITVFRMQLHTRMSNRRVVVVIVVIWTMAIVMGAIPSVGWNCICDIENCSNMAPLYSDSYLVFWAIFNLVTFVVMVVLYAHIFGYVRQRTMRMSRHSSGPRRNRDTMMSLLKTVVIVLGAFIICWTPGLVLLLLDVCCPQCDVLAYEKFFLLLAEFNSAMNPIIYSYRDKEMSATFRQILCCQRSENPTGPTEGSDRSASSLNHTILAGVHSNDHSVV
Below: a set of entries, each annotated with reported IC50.

molecule	IC50
CCc1nc(-c2nnn(C)c2CNc2nncc(C3CC3)n2)ccc1N1C[C@H](CC(=O)O)CC(F)(F)C1 (stereo in doubt)	0.5 to 5 µM
Cc1nc(-c2nnn(C)c2CN2CCN(CC3CC3)C2=O)ccc1N1CC(CC(=O)O)CC(F)(F)C1 (stereo in doubt)	> 5 µM
CCc1nc(-c2nnn(C)c2Cn2cc(OC3CC3)ccc2=O)ccc1N1C[C@@H](CC(=O)O)CC(F)(F)C1	< 0.1 µM

Now look at this one.
IC50 in this record for CCCc1cnn(Cc2c(-c3ccc(N4C[C@@H](CC(=O)O)CC(F)(F)C4)c(C)n3)nnn2C)c(=O)c1 : > 5 µM

###

target: LPA1 (Homo sapiens); construct: ProLink (PK) beta-galactosidase enzyme-fragment tag; experiment: LPA1 calcium flux assay (LPA1 functional antagonist assay); conditions: PathHunter CHO-K1 EDG2 β-Arrestin cell line; calcium indicator dye; stimulated with EC80 concentration of LPA; FLIPR Tetra
property-name: IC50

compound	IC50
CCCc1ccc(=O)n(Cc2c(-c3ccc(CN4CC(C(=O)O)CC(F)(F)C4)c(C)n3)nnn2C)c1 (single isomer, unassigned) [Example 156]	0.1 to 0.5 µM

Lab note: CCc1nc(-c2nnn(C)c2CNc2noc(C3CCC3)n2)ccc1N1C[C@@H](CC(=O)O)CC(F)(F)C1 gave IC50 of 0.5 to 5 µM

The compound listed as CCOc1ccc(=O)n(Cc2c(-c3ccc(N4C[C@@H](CC(=O)O)CC(F)(F)C4)c(CC)n3)nnn2C)c1 shows IC50 equal to 0.1 to 0.5 µM

IC50 recorded for this compound, CCc1nc(-c2nnn(C)c2COc2cc(C3CCC3)ncn2)ccc1N1CCC[C@H](CC(=O)O)C1 , is < 0.1 µM

###

// reported IC50 for each item listed
molecular target: LPA1 (Homo sapiens, UniProt Q92633); construct: ProLink (PK) beta-galactosidase enzyme-fragment tag; assay: LPA1 calcium flux assay (LPA1 functional antagonist assay); details: PathHunter CHO-K1 EDG2 β-Arrestin cell line; calcium indicator dye; stimulated with EC80 concentration of LPA; FLIPR Tetra

Guide cases for IC50, answers given:
molecule	IC50
Cc1nc(-c2nnn(C)c2COc2cc(-n3nccn3)ccn2)ccc1N1CCC[C@H](CC(=O)O)C1	< 100 nM
CCc1nc(-c2nnn(C)c2Cn2cc(C3CCC3)ccc2=O)ccc1N1C[C@@H](CC(=O)O)CC(F)(F)C1	< 100 nM
Cc1nc(-c2nnn(C)c2COc2nnccc2CC(C)C)ccc1N1C[C@@H](CC(=O)O)CC(F)(F)C1	100 to 500 nM
Cc1nc(-c2nnn(C)c2COC(=O)N(C)C2CCC2)ccc1N1C[C@@H](CC(=O)O)CC(F)(F)C1	100 to 500 nM
CCCc1cccnc1OCc1c(-c2ccc(N3CCC(CC(=O)O)C(F)(F)C3)c(C)n2)nnn1C (stereo not shown)	500 to 5000 nM
CCCc1cnc(=O)n(Cc2c(-c3ncc(N4C[C@@H](CC(=O)O)CC(F)(F)C4)c(CC)n3)cnn2C)c1	> 5000 nM

Continue with the molecule presented below.
// IC50 value for CCCc1ccc(=O)n(Cc2c(-c3ccc(N4CCC[C@@H](CC(=O)O)C4)c(C#N)n3)nnn2C)c1 : > 5000 nM

###

target: LPA1 (Homo sapiens, UniProt Q92633); construct: ProLink (PK) beta-galactosidase enzyme-fragment tag; assay: LPA1 calcium flux assay (LPA1 functional antagonist assay); settings: PathHunter CHO-K1 EDG2 β-Arrestin cell line; calcium indicator dye; stimulated with EC80 concentration of LPA; FLIPR Tetra
pIC50: −log10 of the molar value.
property-name: pIC50

compound	system-under-test	pIC50
CCCn1nc(OCc2c(-c3ccc(N4C[C@@H](CC(=O)O)CC(F)(F)C4)c(C)n3)nnn2C)ccc1=O	LPA1 (Homo sapiens, UniProt Q92633)	5.30 to 6.30

Input CCCc1ccc(=O)n(Cc2c(-c3cc(F)c(N4CCCC(CC(=O)O)C4)c(CC)n3)nnn2C)c1 (stereo not shown) . Output pIC50: < 5.30

The value of pIC50 measured for the compound CCCc1ccc(=O)n(Cc2c(-c3ccc(N4CCC[C@@H](CC(=O)O)C4)c(CC)n3)nnn2C)c1 turned out to be < 5.30

Consider CCc1nc(-c2nnn(C)c2Cn2nncc2CC2CC2)ccc1N1C[C@@H](CC(=O)O)CC(F)(F)C1 . Its measured pIC50 is > 7.00

###

IC50 reference
molecular target: LPA1 (Homo sapiens, UniProt Q92633); construct: ProLink (PK) beta-galactosidase enzyme-fragment tag; test: LPA1 calcium flux assay (LPA1 functional antagonist assay); settings: PathHunter CHO-K1 EDG2 β-Arrestin cell line; calcium indicator dye; stimulated with EC80 concentration of LPA; FLIPR Tetra

Study these solved cases before continuing.
compound	system-under-test	IC50
CCCc1cnn(Cc2c(-c3ccc(CN4CC(C(=O)O)CC(F)(F)C4)c(C)n3)nnn2C)c(=O)c1 (single isomer, unassigned) [Example 158]	LPA1 (Homo sapiens, UniProt Q92633)	> 5000 nM
CCc1nc(-c2nnn(C)c2COc2ncnc(C3CCC3)n2)ccc1N1CCC[C@H](CC(=O)O)C1	LPA1 (Homo sapiens, UniProt Q92633)	< 100 nM
Cn1nnc(-c2ccc(N3CCC[C@H](CC(=O)O)C3)c(C(F)F)n2)c1Cn1cc(CC2CC2)nn1	LPA1 (Homo sapiens, UniProt Q92633)	100 to 500 nM
Cc1nc(-c2nnn(C)c2Cn2ccc(CC3CC3)c(C)c2=O)ccc1N1C[C@@H](CC(=O)O)CC(F)(F)C1	LPA1 (Homo sapiens, UniProt Q92633)	500 to 5000 nM
CCc1nc(-c2nnn(C)c2COc2noc(C3CCC3)n2)ccc1N1C[C@@H](CC(=O)O)CC(F)(F)C1	LPA1 (Homo sapiens, UniProt Q92633)	100 to 500 nM

Readout IC50 for CCCc1ccc(=O)n(Cc2c(-c3ccc(N4C[C@@H](CC(=O)O)CC(F)(F)C4)c(CC)n3)nnn2C)c1 , test system LPA1 (Homo sapiens, UniProt Q92633), was < 100 nM

// assay LPA1 (Homo sapiens, UniProt Q92633), entry CCCN(C)C(=O)OCc1c(-c2ccc(CN3CC(C(=O)O)CC(F)(F)C3)c(CC)n2)nnn1C (single isomer, unassigned) [Example 165] , IC50 value = 100 to 500 nM

###

We begin with a simple list: items and their reported pIC50.
target: LPA1 (Homo sapiens); construct: ProLink (PK) beta-galactosidase enzyme-fragment tag; host or cells: CHO-K1; assay: LPA1 calcium flux assay (LPA1 functional antagonist assay); format: cell-based; conditions: PathHunter CHO-K1 EDG2 β-Arrestin cell line; calcium indicator dye; stimulated with EC80 concentration of LPA; FLIPR Tetra
pIC50: −log10 of the molar value.

compound	system-under-test	result
CCCc1cn(C)c(=O)c(OCc2c(-c3ccc(N4C[C@@H](CC(=O)O)CC(F)(F)C4)c(CC)n3)nnn2C)n1	LPA1 (Homo sapiens)	< 5.30
CCc1nc(-c2nnn(C)c2COc2cn(CC3CC3)nn2)ccc1N1C[C@@H](CC(=O)O)CC(F)(F)C1	LPA1 (Homo sapiens)	6.30 to 7.00
CCCc1ccc(=O)n(Cc2c(-c3ccc(N4CCCC(CC(=O)O)C4=O)c(CC)n3)nnn2C)c1 (single isomer, unassigned) [Example 52]	LPA1 (Homo sapiens)	5.30 to 6.30
CCCc1ccc(=O)n(Cc2c(-c3ccc(N4CCCC(CC(=O)O)C4=O)c(CC)n3)nnn2C)c1 (single isomer, unassigned) [Example 53]	LPA1 (Homo sapiens)	< 5.30
CCc1nc(-c2nnn(C)c2COc2nccc(C3CCC3)n2)cc(F)c1N1CCCC(CC(=O)O)C1 (stereo not shown)	LPA1 (Homo sapiens)	6.30 to 7.00
CCc1nc(-c2nnn(C)c2CN2C[C@H](CC3CC3)N(C)C2=O)ccc1N1C[C@@H](CC(=O)O)CC(F)(F)C1	LPA1 (Homo sapiens)	5.30 to 6.30

pIC50 for CCCc1ccnn(Cc2c(-c3ccc(N4C[C@@H](CC(=O)O)CC(F)(F)C4)c(C)n3)nnn2C)c1=O is 5.30 to 6.30

Looking up CCc1nc(-c2nnn(C)c2COc2cn(CC(C)C)nn2)ccc1N1C[C@@H](CC(=O)O)CC(F)(F)C1 , I see its pIC50 listed as 6.30 to 7.00

pIC50 for CCc1nc(-c2nnn(C)c2CNc2nccc(C3CCC3)n2)ccc1CN1CC(C(=O)O)CC(F)(F)C1 (single isomer, unassigned) [Example 163] is 6.30 to 7.00

Per the records, this compound ( CCc1nc(-c2nnn(C)c2COc2noc(C3CC3)n2)ccc1N1CC(CC(=O)O)CC(F)(F)C1 (stereo in doubt) ) has pIC50 equal to < 5.30

pIC50 in this record for CCCc1ccc(=O)n(Cc2c(-c3cnc(N4C[C@H](CC(=O)O)CC(F)(F)C4)cn3)nnn2C)c1 (stereo in doubt) : < 5.30

Data provenance is patent US12780800B1.
